# molar heat capacity at constant pressure per entry
Test Summary: molar heat capacity at constant pressure
Cond: 291.15 K; 101.33 kPa; Liquid; Small sample (50 mg) DSC
Numbers after ± are expanded uncertainties.
Provide a numeric answer, followed by its unit.

Solved cases (5 shown):
# Smiles Data, molar heat capacity at constant pressure
records = [
    ("Brc1ccccc1Br", "178.75 ± 2.8 J/K/mol"),
    ("Clc1ccccc1Br", "173.65 ± 2.7 J/K/mol"),
    ("Clc1cccc(Cl)c1", "168.72 ± 2.6 J/K/mol"),
    ("Clc1ccccc1", "149.41 ± 2.3 J/K/mol"),
    ("Clc1cccc(Br)c1", "172.59 ± 2.7 J/K/mol"),
]

Looking up Brc1ccccc1 , I found its molar heat capacity at constant pressure recorded as 153.14 ± 2.4 J/K/mol

The molecule listed as Clc1ccccc1Cl has a reported molar heat capacity at constant pressure of 169.23 ± 2.6 J/K/mol

In plain terms, Brc1cccc(Br)c1 has a documented molar heat capacity at constant pressure of 177.38 ± 2.8 J/K/mol

###

Test Summary: molar heat capacity at constant pressure
Cond: 293.15 K; 101.33 kPa; Liquid; Small sample (50 mg) DSC
Assay Metric: molar heat capacity at constant pressure (J/K/mol)
Expressed in J/K/mol, but write only the number.

# Smiles Data, Observed Value
data = [
    ("Clc1cccc(Br)c1", 172.97),
    ("Clc1ccc(Cl)c(Cl)c1", 194.25),
    ("Clc1ccccc1Br", 174.02),
    ("Brc1ccccc1Br", 179.08),
    ("Clc1ccccc1Cl", 169.64),
]

Turning now to a further record.
Lab book: molar heat capacity at constant pressure of Clc1ccccc1 noted as 149.85

###

Test Summary: molar heat capacity at constant pressure
Cond: 289.15 K; 101.33 kPa; Liquid; Small sample (50 mg) DSC
molar heat capacity at constant pressure listing for selected compounds.
Provide only the numeric value, understood in J/K/mol.

Consider the following illustrative entries.
# Smiles Data, Unit Label, molar heat capacity at constant pressure
records = [
    ("Clc1ccccc1", "J/K/mol", 148.99),
    ("Clc1cccc(Br)c1", "J/K/mol", 172.21),
    ("Brc1ccccc1Br", "J/K/mol", 178.43),
    ("Brc1cccc(Br)c1", "J/K/mol", 177.04),
    ("Clc1ccccc1Cl", "J/K/mol", 168.83),
    ("Brc1ccccc1", "J/K/mol", 152.75),
    ("Clc1cccc(Cl)c1", "J/K/mol", 168.32),
]

Could you now consider this next compound?
Quick note, molar heat capacity at constant pressure for Clc1ccccc1Br landed at 173.29

###

The reader will find reported molar heat capacity at constant pressure values listed item by item below.
Test Summary: molar heat capacity at constant pressure
Cond: 321.15 K; 101.33 kPa; Liquid; Small sample (50 mg) DSC
# output: bare number, implied unit J/K/mol

Guide cases for molar heat capacity at constant pressure, answers given:
# Smiles Data, molar heat capacity at constant pressure [J/K/mol]
rows = [
    ("Clc1cccc(Br)c1", 178.89),
    ("Clc1ccccc1Cl", 175.85),
]

Consider now this further compound.
Item: Brc1ccccc1 | molar heat capacity at constant pressure: 159.66

###

Test Summary: molar heat capacity at constant pressure
Cond: 353.15 K; 101.33 kPa; Liquid; Small sample (50 mg) DSC
hey, just use 1 (yes) if measured molar heat capacity at constant pressure is less than 200 J/K/mol, otherwise 0 (no)

# Compound, Class Label
measured = [
    ("Brc1ccccc1Br [1,2-dibromobenzene]", "1 (yes)"),
    ("Brc1cccc(Br)c1 [1,3-dibromobenzene]", "1 (yes)"),
    ("Clc1cccc(Cl)c1Cl [1,2,3-trichlorobenzene]", "0 (no)"),
    ("Clc1cccc(Br)c1 [1-bromo-3-chlorobenzene]", "1 (yes)"),
    ("Clc1ccc(Cl)c(Cl)c1Cl [1,2,3,4-tetrachlorobenzene]", "0 (no)"),
]

## Task Dear colleague, could you confirm whether molar heat capacity at constant pressure of Clc1ccc(Cl)cc1 [1,4-dichlorobenzene] falls below 200 J/K/mol? Thanks.
## Result 1 (yes)

## Task Strictly below 200 J/K/mol in molar heat capacity at constant pressure? Clc1cccc(Cl)c1 [1,3-dichlorobenzene]
## Result 1 (yes)

## Task Is it true that molar heat capacity at constant pressure reported for Clc1ccccc1Cl [1,2-dichlorobenzene] is less than 200 J/K/mol?
## Result 1 (yes)

## Task is_below(molar heat capacity at constant pressure, 200 J/K/mol) for Brc1ccccc1 [bromobenzene] ?
## Result 1 (yes)

## Task Take the compound Clc1ccccc1 [chlorobenzene] and say whether its molar heat capacity at constant pressure is less than 200 J/K/mol.
## Result 1 (yes)

## Task Could you please tell me whether molar heat capacity at constant pressure recorded for Clc1ccccc1Br [1-bromo-2-chlorobenzene] is less than 200 J/K/mol?
## Result 1 (yes)

###

Test Summary: molar heat capacity at constant pressure
Cond: 299.15 K; 101.33 kPa; Liquid; Small sample (50 mg) DSC
Below: a set of entries, each annotated with reported molar heat capacity at constant pressure.
Number only, in J/K/mol; omit the unit.

# Compound, Unit Label, molar heat capacity at constant pressure
measured = [
    ("Clc1cccc(Br)c1 [1-bromo-3-chlorobenzene]", "J/K/mol", 174.15),
    ("Clc1ccccc1Cl [1,2-dichlorobenzene]", "J/K/mol", 170.89),
]

molar heat capacity at constant pressure recorded for this compound, Brc1ccccc1 [bromobenzene] , is 154.77

Query Clc1ccccc1 [chlorobenzene] yields molar heat capacity at constant pressure of 151.18

The compound listed as Brc1ccccc1Br [1,2-dibromobenzene] has a reported molar heat capacity at constant pressure of 180.12

The recorded molar heat capacity at constant pressure for entry Clc1ccc(Cl)c(Cl)c1 [1,2,4-trichlorobenzene] equals 195.23

Entry Brc1cccc(Br)c1 [1,3-dibromobenzene] , molar heat capacity at constant pressure reported as 178.81

Quick note, molar heat capacity at constant pressure for Clc1cccc(Cl)c1 [1,3-dichlorobenzene] landed at 170.39

molar heat capacity at constant pressure recorded for this compound, Clc1ccccc1Br [1-bromo-2-chlorobenzene] , is 175.17

###

Test Summary: molar heat capacity at constant pressure
Cond: 351.15 K; 101.33 kPa; Liquid; Small sample (50 mg) DSC
Assay Metric: molar heat capacity at constant pressure (J/K/mol)
Give just the number in J/K/mol; leave the unit off.

# Smiles Data, Assay Metric, Observed Value
data = [
    ("Clc1ccccc1Cl", "molar heat capacity at constant pressure", 182.83),
    ("Clc1ccccc1Br", "molar heat capacity at constant pressure", 186.13),
    ("Clc1cccc(Br)c1", "molar heat capacity at constant pressure", 185.52),
    ("Clc1ccccc1", "molar heat capacity at constant pressure", 163.84),
    ("Clc1cccc(Cl)c1", "molar heat capacity at constant pressure", 182.7),
    ("Clc1ccc(Cl)c(Cl)c1", "molar heat capacity at constant pressure", 204.98),
]

Field molar heat capacity at constant pressure (entry Brc1ccccc1Br ) reads 190.33

###

molar heat capacity at constant pressure by entry:
Test Summary: molar heat capacity at constant pressure
Cond: 311.15 K; 101.33 kPa; Liquid; Small sample (50 mg) DSC
The answer is to be given in J/K/mol; state only the numeric part.

Please review the following examples before continuing.
# Smiles Data, Observed Value
rows = [
    ("Clc1ccccc1Br", 177.61),
    ("Clc1ccccc1Cl", 173.54),
    ("Clc1cccc(Cl)c1", 173.04),
]

The molecule Clc1cccc(Br)c1 showed molar heat capacity at constant pressure equal to 176.68

Measured molar heat capacity at constant pressure of Brc1cccc(Br)c1 : 181.19

###

Test Summary: molar heat capacity at constant pressure
Cond: 313.15 K; 101.33 kPa; Liquid; Small sample (50 mg) DSC
Assay Metric: molar heat capacity at constant pressure (J/K/mol)
Numeric answer only, unit J/K/mol assumed.

Consider the reported molar heat capacity at constant pressure for these molecules:
# Molecule, molar heat capacity at constant pressure (J/K/mol)
records = [
    ("Clc1ccccc1 [chlorobenzene]", 154.45),
    ("Brc1ccccc1Br [1,2-dibromobenzene]", 182.77),
    ("Clc1ccccc1Br [1-bromo-2-chlorobenzene]", 178.03),
    ("Clc1ccc(Cl)c(Cl)c1 [1,2,4-trichlorobenzene]", 197.72),
    ("Brc1ccccc1 [bromobenzene]", 157.83),
]

So for Brc1cccc(Br)c1 [1,3-dibromobenzene] , the logged molar heat capacity at constant pressure turned out to be 181.6

Memo: Clc1cccc(Cl)c1 [1,3-dichlorobenzene] , reported molar heat capacity at constant pressure: 173.49

Quick note, molar heat capacity at constant pressure for Clc1ccccc1Cl [1,2-dichlorobenzene] landed at 174

# molar heat capacity at constant pressure of Clc1cccc(Br)c1 [1-bromo-3-chlorobenzene] = 177.12
